Source of measurements: ChEMBL document CHEMBL1212745

assay.comment: Inhibition of Methanosarcina barkeri porphobilinogen synthase after 60 mins by spectrophotometry
observed.property: IC50 (µM)
Entry rule: numbers only, all in µM.

Which measured IC50 value corresponds to C=C(NC(C)=O)C(=O)CCC(=O)O [ALAREMYCIN] ?
2200

###

assay.comment: Inhibition of Methanosarcina barkeri porphobilinogen synthase by Lineweaver-Burke plot analysis
observed.property: Ki (µM)
Please give a number only; it is taken to be in µM.

State the recorded Ki for this entry: C=C(NC(C)=O)C(=O)CCC(=O)O
1510

###

assay.comment: Inhibition of Pseudomonas aeruginosa PAO1 porphobilinogen synthase after 60 mins by spectrophotometry
observed.property: IC50 (µM)
# number only, unit µM dropped from output

// lookup IC50 for C=C(NC(C)=O)C(=O)CCC(=O)O [ALAREMYCIN]
2100
